# Test name: Metabolic stability assay with human S9 liver fraction
# Type: in vitro ADME
# Condition parameters: liver S9 fraction, pH 7.4; human S9 fraction 1 mg/mL, 10 µM, NADPH + UDPGA; read-out: half‐life t ½
Measurement label: half-life at 10 µM (min)
Write the number in min without appending the unit.

Problem: Would you kindly share the measured half-life at 10 µM for O=C1CCC(Cc2ccc(O)c(O)c2)O1 (stereo not shown) ?
Solution: 8.72

* * *

# Test name: In vitro transport study across 5‐day Wt‐MDCK monolayers
# Type: in vitro ADME, canine
# Condition parameters: dog; Wt‐MDCK model, absorptive direction; VL 50 μM dosed (VLS formed as metabolite), controls 10 μM; N = 4; read-out: P app A–B (mean ± SD)
# Method: Caco2 cells between passage numbers 42–50 and MDCK cells between passage numbers 21–26 were used for transport studies; the assay was conducted as reported by Volpe^[ [33] ^] with slight modifications. Transport experiments were performed in 12‐well Transwell plates. […] To determine the integrity of monolayers, TEER values were measured before and after the experiment. […] Efflux ratio was calculated using the following equation (Equation 3)^[ [48] ^]: (3) Efflux ratio=Papp(B−A)/Papp(A−B).
# Papp A→B at 120 min per entry
Write the number in ×10⁻⁶ cm/s without appending the unit.

CC(=O)O[C@H]1C(=O)[C@@]2(C)[C@H]([C@H](OC(=O)c3ccccc3)[C@]3(O)C[C@H](OC(=O)[C@H](O)[C@@H](NC(=O)c4ccccc4)c4ccccc4)C(C)=C1C3(C)C)[C@]1(OC(C)=O)CO[C@@H]1C[C@@H]2O [Paclitaxel] ... 5.18

Turning to the following compound.
Problem: Would you kindly share the measured Papp A→B at 120 min for CC(C)NCC(O)COc1cccc2ccccc12 (centres unmarked) [Propranolol] ?
Solution: 10.1

* * *

# Test name: MTT cell viability assay
# Assay type: cell-based, human
# Condition parameters: human, Caco2 cells; Caco2, 1.5–50 µM, 6 h exposure; read-out: cells remaining viable
Measurement label: viability at 6 h

Problem: Would you kindly share the measured viability at 6 h for O=C1CCC(Cc2ccc(O)c(O)c2)O1 (stereo not shown) ?
Solution: > 90%

* * *

# Test name: In vitro transport study across 5‐day Wt‐MDCK monolayers
# Type: in vitro ADME, canine
# Condition parameters: dog; Wt‐MDCK model; Papp(B−A)/Papp(A−B); N = 4; read-out: Efflux ratio (mean ± SD)
Where a name gives a salt, the structure may show the parent alone.
# efflux ratio at 120 min per entry
Respond numerically, and do not add a unit to the figure.

// below: answered molecules
CC(C)NCC(O)COc1cccc2ccccc12 (stereo not drawn) [Propranolol] ... 0.535
CC(=O)O[C@H]1C(=O)[C@@]2(C)[C@H]([C@H](OC(=O)c3ccccc3)[C@]3(O)C[C@H](OC(=O)[C@H](O)[C@@H](NC(=O)c4ccccc4)c4ccccc4)C(C)=C1C3(C)C)[C@]1(OC(C)=O)CO[C@@H]1C[C@@H]2O [Paclitaxel] ... 0.55

Problem: Would you kindly share the measured efflux ratio at 120 min for O=C1CCC(Cc2ccc(O)c(OS(=O)(=O)O)c2)O1 (stereo not drawn) [VLS, valerolactone sulfate] ?
Solution: 0.843

// data source = paper PMC11726150
